Origin of values: PubChem BioAssay AID1159580

# PROTOCOL SUMMARY: chemical genetic growth profiling, strain panel (AID 1159580);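 note: tested at 20 µM; growth read once vehicle control cultures reached saturation at 30 °C; 1 = growth at the plate median or of vehicle wells; lower values mean less growth of the strain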
# CONDITION DESCRIPTION: S. cerevisiae deletion strains, growth OD, locus YHR079C, strain IRE1 (second series)
About 2,000 (36%) of roughly 5,500 compounds were called active. Another 18% or so got no clear call; they are omitted. Cut-off read from the data, not from the text of the source: active = normalized growth mostly below about 0.91 (no sharp cut-off); inconclusive = no clear call, values can overlap the other calls; inactive = mostly above about 0.92. Some of the results follow.
The reply should be one of these categories: active, inactive

> print(dat)
                                   compound  class.label
1               CC1=NCCc2c1[nH]c1cc(O)ccc21     inactive
2  Cn1nnnc1SCC1=C(C(=O)O)N2C(=O)C(NC(=O)C(O)c3ccccc3)C2SC1 (stereo not drawn)     inactive
3       COc1ccc(-c2cc(=O)c3cc(OC)ccc3o2)cc1     inactive
4         COc1ccc2c(=O)cc(-c3ccccc3OC)oc2c1     inactive
5  CC1(C)O[C@@H]2CC3C4C[C@H](F)C5=CC(=O)C=C[C@]5(C)[C@@]4(F)[C@@H](O)C[C@]3(C)[C@]2(C(=O)CO)O1 (stereo partly drawn)     inactive
6  C=CCCCCCCCCCCCC(O)CC(O)CO (stereo not drawn)       active

What did the test return for `CCCN1C[C@H](CSC)C[C@@H]2c3cccc4[nH]cc(c34)C[C@H]21` ?
inactive

What did the test return for `Nc1ccc(C(=O)Oc2ccccc2)c(O)c1` ?
active

What did the test return for `CC(=O)Nc1ccc(O)cc1` ?
inactive

What did the test return for `CCn1cc(C(=O)O)c(=O)c2cc(F)c(N3CCNCC3)cc21` ?
inactive

What did the test return for `O=C1CCc2cc(OCCCCc3nnnn3C3CCCCC3)ccc2N1` ?
inactive

---

normalized growth listing for selected molecules.
# PROTOCOL SUMMARY: chemical genetic growth profiling, strain panel (AID 1159580)
# CONDITION DESCRIPTION: S. cerevisiae deletion strains, growth OD, locus YPR167C, strain met16, hits give low values
Hit rate of the full screen: of about 5,500 compounds, about 2,000 (36%) were called active. About 18% were inconclusive and are not listed. Some of the results follow.
Number only, no unit.

Record excerpt, results attached:
> print(dat)
                                    molecule  test.result
 1     CCCCC1C(=O)N(c2ccccc2)N(c2ccccc2)C1=O        0.993
 2         COc1ccc2c(=O)cc(-c3ccccc3OC)oc2c1        0.902
 3          CN(C)CC/C=C1/c2ccccc2COc2ccccc21         1.02
 4  CCN(CCCCOC(=O)c1ccc(OC)c(OC)c1)C(C)Cc1ccc(OC)cc1 (stereo not drawn)        0.997
 5           CN(C)CCC=C1c2ccccc2C=Cc2ccccc21        0.992
 6                            NCCc1cccc(O)c1        0.981
 7  C=CCCCCCCCCCCCC(O)CC(O)CO (stereo not drawn) (tested in a mixture with another compound)        0.203
 8      CC(N)Cc1ccc(O)cc1 (stereo not drawn)         1.02
 9          Nc1nc(N)c2nc(-c3ccccc3)c(N)nc2n1         1.01
10                      CCCCCCCCCc1ccc(O)cc1        0.655

Given the molecule `NCCc1ccc(O)cc1` , write its reported normalized growth.
1.01

Given the molecule C=CCCCCCCCCCCCC(O)CC(O)CO (stereo not drawn) , write its reported normalized growth.
0.964

Given the molecule `COc1ccc(-c2cc(=O)c3cc(OC)ccc3o2)cc1` , write its reported normalized growth.
1.02

---

# PROTOCOL SUMMARY: chemical genetic growth profiling, strain panel (AID 1159580)
# CONDITION DESCRIPTION: S. cerevisiae deletion strains, growth OD, locus YBR023C, strain chs3
Among all 5,500 compounds or so, about 2,000 (36%) were called active. Inconclusive results (about 18%) are left out. Cut-off read from the data, not from the text of the source: active = normalized growth mostly below about 0.91 (no sharp cut-off); inconclusive = no clear call, values can overlap the other calls; inactive = mostly above about 0.92. The list shows a part of the results.
The reply should be one of these categories: t for active, f for inactive

Check out these entries, answers already filled in.
> print(dat)
                                    molecule  class.label
 1          O=c1[nH]c2cc(Cl)c(Cl)cc2[nH]c1=O            f
 2         O=C(O)c1nc2cc(Cl)c(Cl)cc2[nH]c1=O            f
 3  COC(=O)C1=C(C)NC(C)=C(C(=O)OCC(C)C)C1c1ccccc1[N+](=O)[O-] (stereo unspecified)            t
 4  COc1cccc2c1cc([N+](=O)[O-])c1c(C(=O)O)cc3c(c12)OCO3            f
 5  COCCOC(=O)C1=C(C)NC(C)=C(C(=O)OC(C)C)C1c1cccc([N+](=O)[O-])c1 (stereo unspecified)            f
 6  COc1cc([C@@H]2c3cc4c(cc3[C@H](O)[C@H]3COC(=O)[C@@H]23)OCO4)cc(OC)c1OC            f
 7  CC(=O)CC(c1ccccc1)c1c(O)c2ccccc2oc1=O (stereo unspecified)            f
 8  CC(C)=CCc1c2c(c(O)c3c(=O)c(O)c(-c4ccccc4)oc13)C=CC(C)(C)O2            t
 9  CC(=O)OCC(=O)[C@H]1CCC2C3CC=C4C[C@@H](O)CC[C@]4(C)C3CC[C@@]21C (stereo partly specified)            f
10             Nc1nnc(-c2cccc(Cl)c2Cl)c(N)n1            f

What did the test return for `O=c1oc2ccccc2c(O)c1Cc1c(O)c2ccccc2oc1=O` ?
f

What did the test return for CCOC(=O)C1C(C=C(C)C)C1(C)C (stereo unspecified) ?
f

---

# PROTOCOL SUMMARY: chemical genetic growth profiling, strain panel (AID 1159580);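 note: tested at 20 µM; growth read once vehicle control cultures reached saturation at 30 °C; 1 = growth at the plate median or of vehicle wells; lower values mean less growth of the strain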
# CONDITION DESCRIPTION: S. cerevisiae deletion strains, growth OD, locus YAL013W, strain DEP1, hits give low values
About 2,000 (36%) of roughly 5,500 compounds were called active. Roughly 18% stayed inconclusive and do not appear here. The list shows a part of the results.
OBSERVATION TYPE: normalized growth
Number only, no unit.

> print(dat)
                                   compound   observation.type  test.result
1  C=CCCCCCCCCCCCC(O)CC(O)CO (stereo unspecified)  normalized growth        0.952

Shift focus to the following entry.
Given the compound `O=C(O)c1nc2cc(Cl)c(Cl)cc2[nH]c1=O` , write its reported normalized growth.
1.02

---

# PROTOCOL SUMMARY: chemical genetic growth profiling, strain panel (AID 1159580);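 note: tested at 20 µM; growth read once vehicle control cultures reached saturation at 30 °C; 1 = growth at the plate median or of vehicle wells; lower values mean less growth of the strain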
# CONDITION DESCRIPTION: S. cerevisiae deletion strains, growth OD, locus YPR163C, strain tif3
Screen size: about 5,500 compounds; about 2,000 (36%) were called active. Inconclusive results (about 18%) are left out. Rule as the data show it: active = normalized growth mostly below about 0.91 (no sharp cut-off); inconclusive = no clear call, values can overlap the other calls; inactive = mostly above about 0.92. The list shows a part of the results.
The reply should be one of these categories: label 1 (active), label 0 (inactive)

Check out these entries, answers already filled in.
> print(dat)
                                   compound  class.label
1           CN(C)CCC=C1c2ccccc2C=Cc2ccccc21      label 0
2  COc1cc2c3cc1Oc1cc(ccc1O)C[C@@H]1c4c(cc(OC)c(O)c4Oc4ccc(cc4)C[C@@H]3N(C)CC2)CC[N+]1(C)C      label 0
3          CN(C)CC/C=C1/c2ccccc2COc2ccccc21      label 0
4  CC(=O)Oc1cc(-c2coc3cc(OC(C)=O)c(OC(C)=O)c(OC(C)=O)c3c2=O)cc(OC(C)=O)c1OC(C)=O      label 0
5  O=c1c(-c2cc(O)c(O)c(O)c2)coc2cc(O)c(O)c(O)c12      label 0
6  CSc1ccc2c(c1)C(N1CCN(C)CC1)Cc1ccccc1S2 (centres undefined)      label 1

What did the test return for `CN(C)CCC=C1c2ccccc2CCc2ccccc21` ?
label 0

What did the test return for `COc1cc([C@@H]2c3cc4c(cc3[C@H](OC(C)=O)[C@H]3COC(=O)[C@H]23)OCO4)cc(OC)c1OC` ?
label 0

What did the test return for COC(=O)C[C@H]1C(C)(C)C(=O)[C@@H]2CC3=C4CC(OC)O[C@@H](c5ccoc5)[C@]4(C)CCC3[C@@]1(C)C2=O (some centres undefined) ?
label 0

---

# PROTOCOL SUMMARY: chemical genetic growth profiling, strain panel (AID 1159580);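 note: tested at 20 µM; growth read once vehicle control cultures reached saturation at 30 °C; 1 = growth at the plate median or of vehicle wells; lower values mean less growth of the strain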
# CONDITION DESCRIPTION: S. cerevisiae deletion strains, growth OD, locus YJL154C, strain vps35, hits give low values
Hit rate of the full screen: of about 5,500 compounds, about 2,000 (36%) were called active. Not shown: some 18% with an inconclusive outcome. This is one part of the list.
OBSERVATION TYPE: normalized growth
Number only, no unit.

Record excerpt, results attached:
> print(dat)
                                   molecule  test.result
1  COc1cc([C@@H]2c3cc4c(cc3[C@H](OC(C)=O)[C@H]3COC(=O)[C@H]23)OCO4)cc(OC)c1OC         1.01
2  CCOC(=O)C1C(C=C(C)C)C1(C)C (stereo unspecified)            1
3      COc1c(O)cc2c(-c3ccccc3)cc(=O)oc2c1OC        0.985
4  O=C(O)c1cn(-c2ccc(F)cc2)c2cc(N3CCNCC3)c(F)cc2c1=O         0.97
5                            COc1c(O)cccc1O         1.02

Given the molecule `CCn1cc(C(=O)O)c(=O)c2cc(F)c(N3CCNCC3)cc21` , write its reported normalized growth.
0.974
